All values here come from patent US20240368263A1.

# TESTED SYSTEM: T1, human TL1A (Fitzgerald, Prod. #30R-AT070) (human, UniProt O95150 72-251, limits assumed, biotinylated with EZ-Link Sulfo-NHS-LC-Biotin where used as soluble antigen)
# T1 construct: also called TNFSF15; biotinylated human TL1A
# T1 sequence (looked up): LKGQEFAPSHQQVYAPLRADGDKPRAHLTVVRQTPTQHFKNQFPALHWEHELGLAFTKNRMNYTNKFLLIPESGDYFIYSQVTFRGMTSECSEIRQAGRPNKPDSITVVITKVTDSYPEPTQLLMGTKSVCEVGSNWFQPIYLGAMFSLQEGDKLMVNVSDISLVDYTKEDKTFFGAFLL
# TEST SUMMARY: capture lift screen and Fab ELISA on coated TL1A

| BINDER | binding result |
| --- | --- |
| clone 3-4 Fab (12835 framework variant) (Fab, V domains shown, Fab) VH: QVQLVQSGAEVKKPGASVKLSCKASGFDIQDTYMHWVRQAPGQGLEWMGRIDPASGHTKYDPKFQVRVTMTTDTSTSTVYMELSSLRSEDTAVYYCSRSGGLPDVWGQGTTVTVSS VL: EIVLTQSPGTLSLSPGERATLSCRASSSVSYMYWYQQKPGQAPRPWIYATSNLASGVPDRFSGSGSGTDFTLTISRLEPEDFAVYYCQQWSGNPRTFGGGTKLEIK | binds |
| clone 21 Fab (12835 framework variant) (Fab, V domains shown, Fab) VH: QVQLVQSGAEVKKPGASVKLSCKASGFDIQDTYMHWVRQAPGQGLEWMGRIDPASGHTKYDPKFQVRVTMTTDTSTSTVYMELSSLRSEDTAVYYCSRSGGLPDVWGQGTTVTVSS VL: EIVLTQSPGTLSLSPGERATLSCRASSSVSYMYWYQQKPGQAPRLWIYATSNLASGIPDRFSGSGSGTDYTLTISRLEPEDFAVYYCQQWSGNPRTFGGGTKLEIK | binds |
| clone 5-4 Fab (12835 framework variant) (Fab, V domains shown, Fab) VH: QVQLVQSGAEVKKPGASVKLSCKASGFDIQDTYMHWVRQAPGQGLEWMGRIDPASGHTKYDPKFQVRVTMTTDTSTSTVYMELSSLRSEDTAVYYCSRSGGLPDVWGQGTTVTVSS VL: EIVLTQSPGTLSLSPGERATLSCRASSSVSYMYWYQQKPGQAPRPWIYATSNLASGVPDRFSGSGSGTDYTLTISRLEPEDFAVYYCQQWSGNPRTFGGGTKLEIK | binds |
